Target: T1, sIL-6R (soluble IL-6 receptor; SBH Sciences) (human, UniProt P08887 20-365)
T1 construct: also called human IL-6R
T1 sequence: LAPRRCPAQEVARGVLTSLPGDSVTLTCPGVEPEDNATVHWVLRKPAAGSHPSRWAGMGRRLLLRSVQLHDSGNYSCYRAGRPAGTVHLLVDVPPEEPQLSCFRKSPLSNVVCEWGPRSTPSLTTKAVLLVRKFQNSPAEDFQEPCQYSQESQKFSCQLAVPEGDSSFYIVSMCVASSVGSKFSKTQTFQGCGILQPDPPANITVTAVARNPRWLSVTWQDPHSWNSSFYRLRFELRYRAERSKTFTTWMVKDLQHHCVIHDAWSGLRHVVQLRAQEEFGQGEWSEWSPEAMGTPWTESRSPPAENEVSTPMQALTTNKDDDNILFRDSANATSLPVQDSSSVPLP
Test: SPR (BIAcore 3000), antibody on chip, sIL-6R analyte, 25 C
readout.name: kon (M⁻¹ s⁻¹)
All answers are understood in M⁻¹ s⁻¹, so give the number only.

Examples from the recorded data:
| binder | units.text | quantitative.result |
| --- | --- | --- |
| 16# (antibody, human IgG1, kappa, V domains shown, also called Sample # 16) VH: QVQLQESGPGLVRPSQTLSLTCTVSGYSITSDHAWSWVRQPPGRGLEWIGFISYSGITTYNPSLKSRVTMLRDTSKNQFSLRLSSVTAADTAVYYCARSLARITAMDYWGQGSLVTVSS VL: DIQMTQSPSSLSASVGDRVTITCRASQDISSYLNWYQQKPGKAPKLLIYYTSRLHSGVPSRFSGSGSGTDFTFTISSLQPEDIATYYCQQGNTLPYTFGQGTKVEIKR | M⁻¹ s⁻¹ | 296000 |
| 27# (antibody, human IgG1, kappa, V domains shown, also called Sample # 27) VH: QVQLQESGPGLVRPSQTLSLTCTVSGYSITSDHAWSWVRQPPGRGLEWIGFISYSGMTTYNPSLKSRVTMLRDTSKNQFSLRLSSVTAADTAVYYCARSLARATAMDYWGQGSLVTVSS VL: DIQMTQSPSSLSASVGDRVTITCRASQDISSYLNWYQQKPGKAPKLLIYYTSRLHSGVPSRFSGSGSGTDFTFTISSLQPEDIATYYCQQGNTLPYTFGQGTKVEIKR | M⁻¹ s⁻¹ | 339000 |
| 24# (antibody, human IgG1, kappa, V domains shown, also called Sample # 24) VH: QVQLQESGPGLVRPSQTLSLTCTVSGYSITSDHAWSWVRQPPGRGLEWIGYISYSGITTYNPSLKSRVTMLRDTSKNQFSLRLSSVTAADTAVYYCARCLARITAMDYWGQGSLVTVSS VL: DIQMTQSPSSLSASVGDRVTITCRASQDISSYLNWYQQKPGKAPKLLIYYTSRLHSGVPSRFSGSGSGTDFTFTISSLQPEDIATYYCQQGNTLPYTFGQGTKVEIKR | M⁻¹ s⁻¹ | 254000 |

Would you kindly share the measured kon for 26# (antibody, human IgG1, kappa, V domains shown, also called Sample # 26) VH: QVQLQESGPGLVRPSQTLSLTCTVSGYSITSDHAWSWVRQPPGRGLEWIGYISYSGMTTYNPSLKSRVTMLRDTSKNQFSLRLSSVTAADTAVYYCARSLARTTAMDYWGQGSLVTVSS VL: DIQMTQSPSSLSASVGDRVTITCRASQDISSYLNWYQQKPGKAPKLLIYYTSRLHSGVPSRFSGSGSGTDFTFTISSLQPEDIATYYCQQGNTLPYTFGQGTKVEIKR ? 243000

# input binder: 31# (antibody, human IgG1, kappa, V domains shown, also called Sample # 31) VH: QVQLQESGPGLVRPSQTLSLTCTVSGYSITSDHAWSWVRQPPGRGLEWIGFISYSGMTTYNPSLKSRVTMLRDTSKNQFSLRLSSVTAADTAVYYCARSLARITAMDYWGQGSLVTVSS VL: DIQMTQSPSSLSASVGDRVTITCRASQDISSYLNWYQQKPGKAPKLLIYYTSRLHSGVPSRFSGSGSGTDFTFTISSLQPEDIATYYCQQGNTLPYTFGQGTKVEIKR ; wanted: its kon 292000

Entry source: patent US20190315854A1
